test system: SK-OV-3 ovarian; assay: NCI-60 one-dose screen, 48 h; conditions: 10 µM
This is part of a sample that, as a whole, favours compounds with a hit. Of some 83,000 tested, about 20% had one in any assay. The source made the active and inactive calls. The calls were made as follows: active = growth percent below 10; inactive = the rest.
One label from this list, please: T = active, F = inactive

Solved cases (5 shown):
MOLECULE | ASSIGNED CLASS
Cc1cc(C)c2c(Nc3ncnc4c3sc3nc(C)cc(C)c34)n[nH]c2n1 | F
Cc1ccc(S(=O)(=O)N2CCc3ccccc3CC2)cc1 | F
CCOC(=O)Cn1nnc(-c2ccc(OCc3ccccc3F)cc2)n1 | F
CC1=CC2OC34COC3CC(OC(=O)C(F)(F)F)C4(C)C2(C)CC1 (centres undefined) | F
CC(=O)/C(=C\c1ccc(Cl)cc1)c1ccccc1 | F

Request: Recorded test call requested for O=C(NC1CCCC1)c1ccc(N2CCC(NCc3cccc(C(F)(F)F)c3)CC2)cc1
Result: F

Request: // next record CCc1c(C(=O)NCc2c(O)ccc3cccc(O)c23)[nH]c(C)c1C(C)=O
Result: F

Request: Next molecule up: COc1ccccc1NC1=C(N2CCCCC2)C(=O)c2ccccc2C1=O
Result: F

Request: Please do the same for COc1cccc2c1O/C(=C\c1ncc([N+](=O)[O-])n1C)C2=O as well.
Result: T

Source of measurements: PubChem BioAssay (NCI)
